meta.source: paper PMC9724289

procedure_summary: Inhaled seralutinib pharmacokinetics in healthy rats
assay_conditions: male, Sprague Dawley, rat, lung homogenate and plasma

{"chemical_smiles": "COc1ccc(-c2cncc(N[C@@H](C)c3cccc(NC(=O)c4cncc(C)c4)c3)n2)cc1OC", "Kp": 30}
